# Test system: SR leukemia
# assay info: NCI tumour cell line growth inhibition, 48 h

>  <compound>
CC(=O)Oc1cccc2c(/C=N/NC(N)=S)ncc(C)c12

>  <TGI>
> 65.9 µM

$$$$
>  <compound>
CC1(CCCO)CCCCCC(C)(CCCO)C1=O (stereo unspecified)

>  <TGI>
> 100 µM

$$$$
>  <compound>
COC(=O)c1cc2c3ccccc3n(C(C)=O)c2cn1

>  <TGI>
> 100 µM

$$$$
>  <compound>
O=C(O)/C=N\Nc1nc2ccccc2[nH]1

>  <TGI>
> 100 µM

$$$$
>  <compound>
COC(=O)/C=C/c1cc(O)c2oc(-c3ccc(O)c(O)c3)c(C(=O)OC)c2c1

>  <TGI>
> 24.3 µM

$$$$
>  <compound>
CC1=C(C#N)C(C#N)(C#N)C(NN(C)C)C1 (stereo unspecified)

>  <TGI>
> 100 µM

$$$$
>  <compound>
CC(C)(C)c1cc(C(P(=O)(c2ccccc2)c2ccccc2)P(=O)(c2ccccc2)c2ccccc2)cc(C(C)(C)C)c1O

>  <TGI>
> 8.37 µM

$$$$
>  <compound>
O=C(/C=C/c1ccc(O)cc1)OC[C@@H](O)COC1OC(CO)C(O)C(O)C1O (stereo partly specified)

>  <TGI>
> 100 µM

$$$$
>  <compound>
COc1cc(/C=C2\CCC(C)C3C2=NN(C(C)=O)C3c2cc(OC)c(OC)c(OC)c2)cc(OC)c1OC (stereo unspecified)

>  <TGI>
> 100 µM

$$$$
>  <compound>
CC(=O)O.CC(=O)O.CC(=O)O.CC(=O)O.CC(=O)O.CC(=O)O.O.[Ti].[Ti]

>  <TGI>
> 100 µM

$$$$
>  <compound>
Cc1nnc(S(=O)(=O)c2ccc(N=Nc3c(N)nc(N)nc3N)cc2)s1

>  <TGI>
> 100 µM

$$$$

----------
# Test system: SF-268 CNS
# assay info: NCI tumour cell line growth inhibition, 48 h
property measured: TGI

>  <molecule>
COCCOc1cc(F)c2c(Nc3ccc(NC(=O)Cn4cc(C(C)C)nn4)cc3)ncnc2c1

>  <result>
> 100 µM

$$$$
>  <molecule>
COc1nc(C(=O)NNC(=O)c2nc(OC)c3ccccc3c2-c2ccccc2)c(-c2ccccc2)c2ccccc12

>  <result>
> 100 µM

$$$$
>  <molecule>
Cn1cc(C2=C(c3ccc4ccccc4c3)C(=O)NC2=O)c2ccccc21

>  <result>
> 25 µM

$$$$
>  <molecule>
O=C(O)c1n[nH]nc1Cl

>  <result>
> 100 µM

$$$$
>  <molecule>
CCC1(CC)SCc2nc3ccccc3n21

>  <result>
> 100 µM

$$$$
>  <molecule>
COc1ccc(C(=O)c2cc(OC)c(C)c(OC)c2)cc1OC(=O)CCl

>  <result>
> 100 µM

$$$$
>  <molecule>
CC(C)(C)OC(=O)NCC(=O)OCc1ccccc1

>  <result>
> 100 µM

$$$$
>  <molecule>
CC1(CCCO)CCCCCC(C)(CCCO)C1=O (stereo not drawn)

>  <result>
> 100 µM

$$$$
>  <molecule>
CCOC(=O)C1=CC(C)(C(=O)OCC)Nc2c(nc(OC)n(C)c2=O)N1 (stereo not drawn)

>  <result>
> 10 µM

$$$$
>  <molecule>
C=C(C)C(CC=C(C)C)CC12CC(CC=C(C)C)C(C)(C)C(CC=C(C)C)(C(=O)C(Cc3ccc(O)c(O)c3)=C1O)C2=O (stereo not drawn)

>  <result>
> 100 µM

$$$$
>  <molecule>
Cc1cc(C)c(S(=O)(=O)N2CCCN(S(=O)(=O)c3c(C)cc(C)cc3C)OCCCON(S(=O)(=O)c3c(C)cc(C)cc3C)CCCN(S(=O)(=O)c3c(C)cc(C)cc3C)OCCCO2)c(C)c1

>  <result>
> 100 µM

$$$$
>  <molecule>
CC(=O)OC1CCC2(C)C3CCC4(C)C(c5ccc(=O)oc5)CC5OC54C3CCC2(O)C1 (stereo not drawn)

>  <result>
2.57 µM

$$$$
>  <molecule>
O=C(Nc1nc2ncn(CCI)c2c(=O)[nH]1)c1ccccc1

>  <result>
50.3 µM

$$$$
>  <molecule>
COc1cc(C(=O)c2cc(C)c3[nH]c4ccc(Cl)cc4c3c2C)cc(OC)c1OC

>  <result>
16.2 µM

$$$$
>  <molecule>
Cc1ccc2c(n1)C(=O)c1[nH]c3ccccc3c1C2=O

>  <result>
> 100 µM

$$$$
>  <molecule>
C[As](C)SC1OC(CO)C(O)C1O (stereo not drawn)

>  <result>
5.73 µM

$$$$
>  <molecule>
COC(=O)Cc1cc(O)c(C/C=C(\C)CC/C=C(\C)C(O)C(=O)C=C(C)C)cc1O (stereo not drawn)

>  <result>
40.6 µM

$$$$
>  <molecule>
CN(c1ccc(Cl)cc1)S(=O)(=O)c1cccc([N+](=O)[O-])c1

>  <result>
> 100 µM

$$$$
>  <molecule>
O=C1CN=C(C[N+](=O)[O-])c2ccccc21

>  <result>
> 100 µM

$$$$
>  <molecule>
CCOC(=O)/C=C/C(C(=O)/C=C/c1ccc(OC2CCCCO2)c(OC)c1)=C(O)\C=C\c1ccc(OC2CCCCO2)c(OC)c1 (stereo not drawn)

>  <result>
> 100 µM

$$$$
>  <molecule>
COc1ccc(CC2c3cc(Oc4cc(CC5c6cc(OC)c(OC)cc6CCN5C)ccc4O)c(OC)cc3CCN2C)cc1 (stereo not drawn)

>  <result>
17 µM

$$$$
>  <molecule>
C/C1=C\CC[C@@]2(C)O[C@@H]2[C@H]2OC(=O)[C@@H](CN(C)C)[C@@H]2CC1

>  <result>
> 100 µM

$$$$
>  <molecule>
COC(=O)C12C3C4C1C1C2C3C41C(=O)OC(C)(C)C (stereo not drawn)

>  <result>
> 100 µM

$$$$
>  <molecule>
CCCCCCCCCCCCCCCCCCNc1ccn(C2OC(COP(=O)(O)OCC3OC(n4cc(C)c(=O)[nH]c4=O)CC3O)C(O)C2O)c(=O)n1 (stereo not drawn)

>  <result>
32.4 µM

$$$$
>  <molecule>
COc1ccc(/C=C(/C(=O)c2ccc(Cl)cc2)N2C=CC=CC2=C(C#N)C#N)cc1OC

>  <result>
17.2 µM

$$$$
>  <molecule>
CC[N+](CC)(CCNCC(N)=O)CC(N)=O

>  <result>
> 10 µM

$$$$
>  <molecule>
Cc1cccc(-c2nc3ccc([N+](=O)[O-])cc3c(=O)o2)c1

>  <result>
> 100 µM

$$$$
>  <molecule>
Clc1c(Cl)c(Cl)c2nn(C3CCCO3)nc2c1Cl (stereo not drawn)

>  <result>
> 100 µM

$$$$
